Test Target: Receptor-interacting serine/threonine-protein kinase 2 (Homo sapiens, UniProt O43353)
Sequence (O43353 whole entry): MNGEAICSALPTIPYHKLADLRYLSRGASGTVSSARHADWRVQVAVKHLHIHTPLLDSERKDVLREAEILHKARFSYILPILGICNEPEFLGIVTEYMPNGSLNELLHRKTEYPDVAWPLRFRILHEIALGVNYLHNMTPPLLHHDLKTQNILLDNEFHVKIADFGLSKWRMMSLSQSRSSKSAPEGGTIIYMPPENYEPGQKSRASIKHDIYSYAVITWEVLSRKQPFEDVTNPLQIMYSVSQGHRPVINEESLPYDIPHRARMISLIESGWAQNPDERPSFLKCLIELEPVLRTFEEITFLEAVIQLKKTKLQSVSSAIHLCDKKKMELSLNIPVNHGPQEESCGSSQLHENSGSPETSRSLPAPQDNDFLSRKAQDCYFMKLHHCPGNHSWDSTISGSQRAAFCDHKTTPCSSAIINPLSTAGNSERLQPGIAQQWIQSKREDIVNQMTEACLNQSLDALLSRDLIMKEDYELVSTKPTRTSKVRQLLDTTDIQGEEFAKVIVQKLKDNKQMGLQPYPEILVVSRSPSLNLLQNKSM
Test Name: Inhibition of human RIPK2 using MBP as substrate by [gamma33-ATP] based radiometric assay
Test Readout: pIC50
A value of pIC50 is the negative decimal logarithm of a concentration given in moles per litre.

In: Specify the recorded pIC50 for CC(C)(C)c1nc(-c2cccc(NS(=O)(=O)c3c(F)cccc3F)c2F)c(-c2ccnc(N)n2)s1 [DABRAFENIB] , system: Receptor-interacting serine/threonine-protein kinase 2 (Homo sapiens, UniProt O43353).
Out: 7.11

* * *

Test Target: Receptor-interacting serine/threonine-protein kinase 1 (Homo sapiens, UniProt Q13546)
Sequence (Q13546 whole entry): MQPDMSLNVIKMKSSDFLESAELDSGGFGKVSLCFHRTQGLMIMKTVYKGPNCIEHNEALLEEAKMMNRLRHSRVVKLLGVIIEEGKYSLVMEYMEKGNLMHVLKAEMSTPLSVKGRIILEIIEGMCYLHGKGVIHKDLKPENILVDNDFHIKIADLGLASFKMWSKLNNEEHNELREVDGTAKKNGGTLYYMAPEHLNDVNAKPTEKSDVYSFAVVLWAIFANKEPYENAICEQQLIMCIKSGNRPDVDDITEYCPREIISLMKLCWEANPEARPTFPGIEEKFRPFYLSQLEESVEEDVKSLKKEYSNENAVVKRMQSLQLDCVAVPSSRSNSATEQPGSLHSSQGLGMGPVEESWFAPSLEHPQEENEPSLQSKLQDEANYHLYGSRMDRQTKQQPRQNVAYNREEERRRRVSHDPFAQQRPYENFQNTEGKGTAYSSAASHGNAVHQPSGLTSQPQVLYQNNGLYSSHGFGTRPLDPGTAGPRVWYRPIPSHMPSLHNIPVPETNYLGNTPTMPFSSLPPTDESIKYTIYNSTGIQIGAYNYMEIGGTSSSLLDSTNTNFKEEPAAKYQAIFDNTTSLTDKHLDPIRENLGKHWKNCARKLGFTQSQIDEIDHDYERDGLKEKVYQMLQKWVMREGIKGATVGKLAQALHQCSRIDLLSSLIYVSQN
Test Name: Inhibition of human RIPK1 using MBP as substrate by [gamma33-ATP] based radiometric assay
Test Readout: IC50 (µM)
// note: answer is a bare numeric in µM

In: Specify the recorded IC50 for CC(C)(C)c1nc(-c2cccc(NS(=O)(=O)c3c(F)cccc3F)c2F)c(-c2ccnc(N)n2)s1 , system: Receptor-interacting serine/threonine-protein kinase 1 (Homo sapiens, UniProt Q13546).
Out: 53.2
